- methodSummary: Cytotoxicity against mouse RAW264.7 cells assessed as cell survival at 10 uM preincubated for 4 hrs followed by compound addition and measured after 20 hrs by MTT assay relative to control
- Type: toxicity, cell-based
- testConditions: read-out: Survival
reportedProperty: viability at 20 h, 10 µM (%)
Numbers only here, please. The scale is %.

molecule	reportedProperty	unitAbbrev	experimentalResult
COC(=O)C#CC1(O)C(=O)N(C)c2cccc(Cl)c21 (configuration not stated)	viability at 20 h, 10 µM	%	86.7

Okay, next one:
Req: Could you tell me which viability at 20 h, 10 µM is on file for COC(=O)C#CC1(O)C(=O)N(Cc2cccc3ccccc23)c2ccc(Cl)cc21 (configuration not stated) ?
Resp: 99.9

====

- methodSummary: Cytotoxicity against mouse RAW264.7 cells assessed as cell survival at 5 uM preincubated for 4 hrs followed by compound addition and measured after 20 hrs by MTT assay relative to control
- Assay type: toxicity, cell-based
- testConditions: read-out: Survival
reportedProperty: viability at 20 h, 5 µM

Req: Could you tell me which viability at 20 h, 5 µM is on file for COC(=O)C#CC1(O)C(=O)N(Cc2ccccc2)c2cc(Cl)ccc21 (stereo unspecified) ?
Resp: 57.9%
